test.method.notes: yeast display, Sf9 membrane polyspecificity reagent, FACS + sequencing; frameworks hold sequencing errors
measure.name: polyreactivity (PSR sort gate)

* QVQLVESGGGLVQAGGSLRLSCAASGRIFSINVMGWYRHAPGKERELVAAISKRGGSTYYADSVKGRFTISRDNAKNTVYLQMNSLKPEDTAVYYCAARRHYTYGNGPSRGGQMDYWGQGTQVTVSS | high polyreactivity
* QVQLVESGGGLVQAGGSLRLSCAASGRIFLGYAMGWYRQPPGKVSELVAAINSVASTNYADSVKGRFTISRDNAKNTVYLQMNSLKPEDTAVYYCAAVYFLVQSDLPAYDYWGQGTLVTVSS | low polyreactivity
* QVQLVESGGGLVQAGGSLRLSCAASGIIFDEYAMGWYRQAPGKERELVAVIDWSGGSTYYADSVKGRFTISRDNAKNTFFLQMNSLKPEDTAVYYCAAEDDSTTPEFDYWGQGTQVTVSS | low polyreactivity
* QVQLVESGGGLVQEGGSLRLSCAASGSIFTLYFMGWYRQAPGKERELVAAITWSGGSTYYADSVKGRFTISRDNAKNTVYLQMNSLKTEVTAVYYCNADVRWDSQDYYYWGQGTQVTVSS | low polyreactivity
* QVQLVESGGGLVQAGCSLGISCAASGSTVRGNAMGWYRQAPGKEREFVAAITVSGGSTYYADSVKGRFTLSRDNAKINVYVEMNSLKPEDNAVYYCAASVYKGWPTHYDYWGQGTQVTVSS | high polyreactivity
